Provenance of the data: patent US20240018502A1

molecular target: plasma purified human complement protein C3 (human) (UniProt P01024); experiment: cell-based or functional assay
Sequence (P01024 23-667, chain 1 of 2): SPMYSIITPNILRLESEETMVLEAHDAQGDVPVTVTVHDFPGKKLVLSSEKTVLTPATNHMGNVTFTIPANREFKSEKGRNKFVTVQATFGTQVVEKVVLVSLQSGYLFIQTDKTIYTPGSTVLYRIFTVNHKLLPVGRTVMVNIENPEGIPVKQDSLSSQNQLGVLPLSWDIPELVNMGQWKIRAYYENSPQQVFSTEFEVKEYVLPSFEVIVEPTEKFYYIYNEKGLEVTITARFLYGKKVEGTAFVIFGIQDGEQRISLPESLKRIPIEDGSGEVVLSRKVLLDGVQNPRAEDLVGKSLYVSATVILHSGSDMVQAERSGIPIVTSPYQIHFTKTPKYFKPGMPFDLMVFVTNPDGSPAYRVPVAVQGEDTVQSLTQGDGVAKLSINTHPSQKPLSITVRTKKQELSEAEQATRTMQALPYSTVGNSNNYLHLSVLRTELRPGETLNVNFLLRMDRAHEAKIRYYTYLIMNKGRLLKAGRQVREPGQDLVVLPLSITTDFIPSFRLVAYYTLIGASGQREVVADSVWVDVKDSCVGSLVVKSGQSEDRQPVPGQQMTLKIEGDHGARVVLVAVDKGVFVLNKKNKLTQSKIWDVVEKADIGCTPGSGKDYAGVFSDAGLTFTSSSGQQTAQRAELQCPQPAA
Sequence (P01024 672-1663, chain 2 of 2): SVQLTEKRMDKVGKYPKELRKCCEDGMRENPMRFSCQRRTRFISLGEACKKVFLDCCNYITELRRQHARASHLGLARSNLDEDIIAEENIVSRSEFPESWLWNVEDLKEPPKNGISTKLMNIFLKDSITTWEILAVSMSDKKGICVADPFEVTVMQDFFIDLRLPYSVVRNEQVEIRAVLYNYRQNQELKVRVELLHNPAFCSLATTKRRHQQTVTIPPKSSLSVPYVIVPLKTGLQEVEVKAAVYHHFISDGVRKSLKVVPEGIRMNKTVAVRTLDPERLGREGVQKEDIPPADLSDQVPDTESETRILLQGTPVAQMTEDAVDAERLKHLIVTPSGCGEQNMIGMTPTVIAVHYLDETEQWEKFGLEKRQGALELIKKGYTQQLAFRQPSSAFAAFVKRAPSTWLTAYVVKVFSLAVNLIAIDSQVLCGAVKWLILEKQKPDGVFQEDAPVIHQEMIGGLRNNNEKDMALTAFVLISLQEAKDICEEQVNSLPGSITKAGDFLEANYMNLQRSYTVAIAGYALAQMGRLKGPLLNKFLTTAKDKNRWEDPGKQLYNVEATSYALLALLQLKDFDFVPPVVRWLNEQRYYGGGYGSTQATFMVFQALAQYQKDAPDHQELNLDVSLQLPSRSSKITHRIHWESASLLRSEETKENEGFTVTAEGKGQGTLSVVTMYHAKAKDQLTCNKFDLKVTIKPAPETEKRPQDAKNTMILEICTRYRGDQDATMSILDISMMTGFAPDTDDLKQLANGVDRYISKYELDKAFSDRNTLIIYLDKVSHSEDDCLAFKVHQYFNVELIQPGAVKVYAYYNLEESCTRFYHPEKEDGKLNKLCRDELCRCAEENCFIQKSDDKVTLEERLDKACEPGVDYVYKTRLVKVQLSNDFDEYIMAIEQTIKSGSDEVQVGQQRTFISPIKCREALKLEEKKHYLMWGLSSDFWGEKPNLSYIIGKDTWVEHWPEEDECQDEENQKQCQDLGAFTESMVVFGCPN
quantity measured: EC50 of hC3 cleavage (nM)

[[record]]
binder = "MTSP-1 I41S/F99L/C122S/G151N/Q192V (enzyme) VVGGTDADEGEWPWQVSLHALGQGHSCGASLISPNWLVSAAHCYIDDRGFRYSDPTQWTAFLGLHDQSQRSAPGVQERRLKRIISHPFFNDFTLDYDIALLELEKPAEYSSMVRPISLPDASHVFPAGKAIWVTGWGHTQYGGTNALILQKGEIRVINQTTCENLLPQQITPRMMCVGFLSGGVDSCVGDSGGPLSSVEADGRIFQAGVVSWGDGCAQRNKPGVYTRLPLFRDWIKENTGV"
quantity_measured = "EC50 of hC3 cleavage"
numeric_readout = 34.4

[[record]]
binder = "MTSP-1 ins97aA/F97G/T98L/C122S/Q175M/Q192A/D217I/K224R (enzyme) VVGGTDADEGEWPWQVSLHALGQGHICGASLISPNWLVSAAHCYIDDRGFRYSDPTQWTAFLGLHDQSQRSAPGVQERRLKRIISHPFFNDGALFDYDIALLELEKPAEYSSMVRPISLPDASHVFPAGKAIWVTGWGHTQYGGTGALILQKGEIRVINQTTCENLLPQMITPRMMCVGFLSGGVDSCAGDSGGPLSSVEADGRIFQAGVVSWGIGCAQRNRPGVYTRLPLFRDWIKENTGV"
quantity_measured = "EC50 of hC3 cleavage"
numeric_readout = 0.866

